- target or test system: human TLR9 (Homo sapiens)
- Sequence (Q9NR96 26-1032): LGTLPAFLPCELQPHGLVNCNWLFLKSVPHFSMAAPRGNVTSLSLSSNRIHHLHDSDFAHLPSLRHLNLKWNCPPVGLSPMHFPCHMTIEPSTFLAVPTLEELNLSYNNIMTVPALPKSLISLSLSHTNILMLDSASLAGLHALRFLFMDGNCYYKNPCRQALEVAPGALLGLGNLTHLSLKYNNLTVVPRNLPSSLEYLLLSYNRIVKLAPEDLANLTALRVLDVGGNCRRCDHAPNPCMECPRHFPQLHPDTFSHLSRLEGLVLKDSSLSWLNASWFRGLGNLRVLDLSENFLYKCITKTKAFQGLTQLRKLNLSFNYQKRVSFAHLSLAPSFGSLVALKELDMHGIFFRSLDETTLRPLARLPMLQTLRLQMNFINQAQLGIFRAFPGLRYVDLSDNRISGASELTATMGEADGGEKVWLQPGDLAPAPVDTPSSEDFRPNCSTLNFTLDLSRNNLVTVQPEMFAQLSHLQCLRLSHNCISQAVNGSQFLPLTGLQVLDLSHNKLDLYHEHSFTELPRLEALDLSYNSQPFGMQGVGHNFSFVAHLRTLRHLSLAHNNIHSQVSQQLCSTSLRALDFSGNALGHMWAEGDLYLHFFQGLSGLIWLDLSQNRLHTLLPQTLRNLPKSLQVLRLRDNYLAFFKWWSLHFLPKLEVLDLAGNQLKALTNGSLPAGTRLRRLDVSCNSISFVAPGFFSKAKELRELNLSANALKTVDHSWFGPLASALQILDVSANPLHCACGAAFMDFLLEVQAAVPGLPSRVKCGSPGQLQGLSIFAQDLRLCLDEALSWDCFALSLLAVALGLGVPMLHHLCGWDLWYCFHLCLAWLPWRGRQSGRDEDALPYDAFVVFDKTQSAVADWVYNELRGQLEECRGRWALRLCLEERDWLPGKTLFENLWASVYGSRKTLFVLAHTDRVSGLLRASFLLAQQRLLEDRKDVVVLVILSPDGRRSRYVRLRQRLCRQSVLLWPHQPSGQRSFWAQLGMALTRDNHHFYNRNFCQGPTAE
- protocol description: TLR9 inhibition reporter assay (HEK-Blue cells, SEAP reporter, ODN2006 stimulation)
- details: HEK-Blue cells overexpressing human TLR9, SEAP reporter, ODN2006 5 nM
experimental endpoint: IC50

Task item: Output IC50 of CC(C)c1c(-c2cccn3ncnc23)[nH]c2ccc(C3CCN(CC(C)(C)O)CC3)cc12
Reply: 1000 to 50000 nM

Task item: Output IC50 of Cc1c(-c2[nH]c3ccc(C4CCN(C(=O)CN(C)C)CC4)cc3c2C(C)C)cn2nnnc2c1C
Reply: 1000 to 50000 nM

Task item: Output IC50 of Cc1cc(-c2[nH]c3ccc(C4CCNCC4)cc3c2C(C)C)cc2c(C(=O)N(C)C)cnn12
Reply: 1000 to 50000 nM

Task item: Output IC50 of CC(C)c1c(-c2cc(Cl)c3ncccc3c2)[nH]c2ccc(C3CCNCC3)cc12
Reply: 1000 to 50000 nM

Task item: Output IC50 of CC(C)c1c(-c2ccn3cnnc3c2)[nH]c2ccc(C3CCN(CC(=O)N(C)C)CC3)cc12
Reply: 1000 to 50000 nM

Task item: Output IC50 of Cc1c(-c2ccnc3[nH]cc(C(C)C)c23)[nH]c2ccc(C3CCNCC3)cc12
Reply: 100 to 1000 nM

Task item: Output IC50 of CC(C)c1c(-c2ccnc3[nH]ncc23)[nH]c2ccc(C3CCN(CCCN(C)C)CC3)cc12
Reply: 100 to 1000 nM

Task item: Output IC50 of Cc1cc2nnnn2cc1-c1[nH]c2ccc(C3CCN(C(=O)CN(C)C)CC3)cc2c1C(C)C
Reply: 1000 to 50000 nM
